assay system: Mas-related G-protein coupled receptor member X1 (Homo sapiens)
Sequence (Q96LB2 whole entry): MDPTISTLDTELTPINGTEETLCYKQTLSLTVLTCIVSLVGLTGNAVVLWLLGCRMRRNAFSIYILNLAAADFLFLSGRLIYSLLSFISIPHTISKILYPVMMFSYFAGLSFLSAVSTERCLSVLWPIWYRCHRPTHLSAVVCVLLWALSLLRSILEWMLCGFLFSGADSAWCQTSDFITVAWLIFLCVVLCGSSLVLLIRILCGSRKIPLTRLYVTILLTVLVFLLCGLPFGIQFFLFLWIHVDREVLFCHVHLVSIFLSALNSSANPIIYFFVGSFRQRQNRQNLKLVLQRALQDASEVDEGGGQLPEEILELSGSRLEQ
assay: Agonist activity at human MrgprX1 expressed in HEK293 cells incubated for 2 mins by Fluo4AM dye based FLIPR assay
quantity kind: pEC50
The scale used: pEC50 is minus the common logarithm of the concentration in molar units.

# get_value(readout='pEC50', item= Cc1ccc(NS(=O)(=O)c2ccccc2OC(F)(F)F)c(Oc2ccc(C(=N)N)cc2)c1 )
6.82

# get_value(readout='pEC50', item= COc1cc(CNc2ccc(C(=N)N)cc2)ccc1OCCC(C)C )
5.72

# get_value(readout='pEC50', item= CCCCS(=O)(=O)Nc1ccccc1Oc1ccc(C(=N)N)cc1 )
6.52

# get_value(readout='pEC50', item= COc1cc(CNc2cccc(C(=N)N)c2)ccc1OCc1ccccc1 )
5.48

# get_value(readout='pEC50', item= COc1cc(CNc2ccc(C(=N)N)cc2)ccc1OCc1ccccc1 )
6.29

# get_value(readout='pEC50', item= COc1cc(CNc2ccc3c(N)nccc3c2)ccc1OCc1ccccc1 )
5.43

# get_value(readout='pEC50', item= COc1cc(CNc2ccc(C(=N)N)cc2)ccc1OCc1ccsc1 )
6.54

# get_value(readout='pEC50', item= CCCCS(=O)(=O)Nc1cc(C)ccc1Oc1ccc(C(=N)N)cc1 )
6.04

# get_value(readout='pEC50', item= CCCCS(=O)(=O)Nc1ccc(C)cc1Oc1ccc(C(=N)N)cc1 )
5.66

---

assay system: Mu-type opioid receptor (Rattus norvegicus)
Sequence (P33535 whole entry): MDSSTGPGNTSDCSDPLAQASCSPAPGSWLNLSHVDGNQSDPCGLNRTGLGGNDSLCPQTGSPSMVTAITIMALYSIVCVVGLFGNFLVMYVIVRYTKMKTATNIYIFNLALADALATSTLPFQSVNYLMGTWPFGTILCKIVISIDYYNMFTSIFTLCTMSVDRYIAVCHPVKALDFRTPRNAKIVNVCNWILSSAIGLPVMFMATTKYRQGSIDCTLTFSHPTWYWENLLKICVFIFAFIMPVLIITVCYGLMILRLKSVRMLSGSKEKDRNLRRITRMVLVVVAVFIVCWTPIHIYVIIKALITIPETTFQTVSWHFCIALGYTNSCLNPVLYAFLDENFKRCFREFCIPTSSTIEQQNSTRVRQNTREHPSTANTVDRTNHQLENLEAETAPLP
quantity kind: Ki (nM)
Your answer is read as nM, so omit the unit and give the number.

# get_value(readout='Ki', item= COc1ccccc1S(=O)(=O)Nc1ccc(C)cc1Oc1ccc(C(=N)N)cc1 )
72.7
